Test system: RPMI-DOX40 cells
protocol-summary: XTT cytotoxicity, RPMI-DOX40
Assay type: cell-based
reported-conditions: RPMI-DOX40 / RPMI 8226
measurement-kind: IC50 ratio between resistant and non-resistant cells

molecule	bound-operator	reported-result
CC[C@]1(O)C[C@H]2CN(CCc3c([nH]c4ccccc34)[C@@](C(=O)OC)(c3cc4c(cc3OC)N(C=O)[C@H]3[C@@](O)(C(=O)OC)[C@H](OC(C)=O)[C@]5(CC)C=CCN6CC[C@]43[C@@H]65)C2)C1 [Vincristine, reference compound]	>	5.263
Cc1c(C(=O)OCCCCO)oc2c1C(=O)CC(c1ncco1)C2 (stereo not drawn)	=	1.155
CCCOC(=O)c1[nH]c2c(c1C)C(O)CC(c1ncco1)C2 (stereo not drawn)	=	0.543

The reported measurements were obtained from patent US20260226037A1.
